Study System: CDK12 (Homo sapiens, UniProt Q9NYV4)
Sequence (Q9NYV4 whole entry): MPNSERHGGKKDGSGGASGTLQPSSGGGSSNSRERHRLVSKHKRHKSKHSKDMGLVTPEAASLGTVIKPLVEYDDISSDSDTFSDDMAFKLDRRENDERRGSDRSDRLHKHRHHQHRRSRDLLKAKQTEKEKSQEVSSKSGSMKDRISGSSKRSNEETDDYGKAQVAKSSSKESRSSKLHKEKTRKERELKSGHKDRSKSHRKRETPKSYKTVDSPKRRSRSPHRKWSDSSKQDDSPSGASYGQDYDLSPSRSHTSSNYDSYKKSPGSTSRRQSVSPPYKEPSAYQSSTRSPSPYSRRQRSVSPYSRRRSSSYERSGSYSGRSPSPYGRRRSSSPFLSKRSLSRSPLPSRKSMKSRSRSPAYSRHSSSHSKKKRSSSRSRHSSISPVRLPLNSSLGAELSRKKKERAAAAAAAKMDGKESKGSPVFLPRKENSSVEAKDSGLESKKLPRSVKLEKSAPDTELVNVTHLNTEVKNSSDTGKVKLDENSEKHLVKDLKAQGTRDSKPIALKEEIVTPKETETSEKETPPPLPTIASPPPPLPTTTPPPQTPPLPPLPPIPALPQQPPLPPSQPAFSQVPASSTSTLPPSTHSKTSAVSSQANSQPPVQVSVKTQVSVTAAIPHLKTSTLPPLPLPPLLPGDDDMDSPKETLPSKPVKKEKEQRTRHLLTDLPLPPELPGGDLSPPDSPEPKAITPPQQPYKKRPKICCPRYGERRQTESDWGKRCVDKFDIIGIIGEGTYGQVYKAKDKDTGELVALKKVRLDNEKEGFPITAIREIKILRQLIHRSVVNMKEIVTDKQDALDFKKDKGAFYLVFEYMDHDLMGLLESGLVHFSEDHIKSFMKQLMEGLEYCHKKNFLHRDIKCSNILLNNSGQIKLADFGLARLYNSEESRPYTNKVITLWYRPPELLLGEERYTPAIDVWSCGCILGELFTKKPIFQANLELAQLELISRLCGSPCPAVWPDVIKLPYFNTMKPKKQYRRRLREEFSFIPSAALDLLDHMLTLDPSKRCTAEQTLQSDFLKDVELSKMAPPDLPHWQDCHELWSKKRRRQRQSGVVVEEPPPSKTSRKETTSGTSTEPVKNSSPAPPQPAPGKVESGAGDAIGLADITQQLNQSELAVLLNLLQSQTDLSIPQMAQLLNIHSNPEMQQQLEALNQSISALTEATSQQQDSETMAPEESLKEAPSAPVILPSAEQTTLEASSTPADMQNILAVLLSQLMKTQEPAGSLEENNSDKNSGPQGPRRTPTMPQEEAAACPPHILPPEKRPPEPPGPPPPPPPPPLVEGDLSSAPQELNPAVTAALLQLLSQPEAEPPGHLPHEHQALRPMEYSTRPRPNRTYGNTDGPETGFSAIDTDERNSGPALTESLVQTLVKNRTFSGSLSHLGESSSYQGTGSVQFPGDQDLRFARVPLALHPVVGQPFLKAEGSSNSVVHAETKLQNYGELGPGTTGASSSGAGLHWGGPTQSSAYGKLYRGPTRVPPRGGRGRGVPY
Sequence (O75909 whole entry partner): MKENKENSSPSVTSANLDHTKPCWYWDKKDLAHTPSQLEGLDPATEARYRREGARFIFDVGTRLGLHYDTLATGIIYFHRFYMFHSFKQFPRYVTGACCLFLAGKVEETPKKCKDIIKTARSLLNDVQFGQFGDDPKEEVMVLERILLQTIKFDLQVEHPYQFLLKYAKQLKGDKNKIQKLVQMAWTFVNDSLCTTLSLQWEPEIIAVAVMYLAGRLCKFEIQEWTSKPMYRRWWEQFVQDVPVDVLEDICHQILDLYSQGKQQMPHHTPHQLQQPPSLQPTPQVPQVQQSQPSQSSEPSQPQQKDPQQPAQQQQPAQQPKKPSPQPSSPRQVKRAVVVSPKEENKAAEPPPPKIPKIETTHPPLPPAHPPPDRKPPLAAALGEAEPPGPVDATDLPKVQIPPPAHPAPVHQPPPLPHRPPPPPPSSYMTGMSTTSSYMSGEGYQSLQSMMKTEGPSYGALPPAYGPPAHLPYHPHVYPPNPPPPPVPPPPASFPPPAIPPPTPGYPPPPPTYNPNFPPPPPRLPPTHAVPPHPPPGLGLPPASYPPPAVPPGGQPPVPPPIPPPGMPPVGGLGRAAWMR
Procedure Text: Inhibition of cyclin-dependent kinase 12 (% enzyme activity at 1 uM and IC50)
Assay type: biochemical
Doc: threshold 500 nM (exclusive). Items with IC50 beneath it return True; others return False.

Molecule	Study System	Classification
CC(C)n1cc(-c2cnc3c(NCc4nc5cccc(Cl)c5[nH]4)cc(N4CCOCC4)nn23)cn1 [Cmpd 18]	CDK12 (Homo sapiens, UniProt Q9NYV4)	False
CN1CCN(c2cc(NCc3nc4c(F)c(F)ccc4[nH]3)c3ncc(-c4ccsc4)n3n2)CC1 [Cmpd 78]	CDK12 (Homo sapiens, UniProt Q9NYV4)	True
CN1CCN(c2cc(NCc3nc4c(F)c(F)ccc4[nH]3)c3ncc(-c4cnn(C)c4)n3n2)CC1 [Cmpd 5]	CDK12 (Homo sapiens, UniProt Q9NYV4)	False

Exercise: Say whether its IC50 is strictly beneath 500 nM. Entry: CN1CCC(Nc2cc(NCc3nc4cccc(Cl)c4[nH]3)c3ncc(-c4ccsc4)n3n2)CC1 [Cmpd 71]
Solution: True

Exercise: Please give the result for FC(F)n1cc(-c2cnc3c(NCc4nc5cc(Cl)c(Cl)cc5[nH]4)cc(N4CCOCC4)nn23)cn1 [Cmpd 42] too.
Solution: True

Exercise: Please give the result for CN1CCN(c2cc(NCc3nc4cc(Cl)c(Cl)cc4[nH]3)c3ncc(-c4cn[nH]c4)n3n2)CC1 [Cmpd 60] too.
Solution: False

====

Tested on: CCNK
Procedure Text: CCNK degradation (DC50, Dmax)
Type: cell-based
Test Context: CCNK degradation
Dmax (%) for assorted compounds
Include the unit after the number when you answer.

Structure Smiles String	Observation Type	Reported
Fc1ccc2[nH]c(CNc3cc(N4CCOCC4)nn4c(-c5cnn(C(F)F)c5)cnc34)nc2c1F	Dmax (%)	80%

Exercise: What does the data say about its Dmax (%)? Entry: `Cc1ccnc2[nH]c(CNc3cc(N4CCN(C)CC4)nn4c(-c5ccsc5)cnc34)nc12`
Solution: 80%

Exercise: Please give the result for `Cc1cc(-c2cnc3c(NCc4nc5c(F)cccc5[nH]4)cc(N4CCN(C)CC4)nn23)cs1` too.
Solution: 80%

====

Dmax (%) for assorted compounds
Tested on: CCNK
Procedure Text: CCNK degradation (DC50, Dmax)
Format: cell-based
Test Context: CCNK degradation
Include the unit after the number when you answer.

// worked examples, Dmax (%) included
Structure Smiles String	Study System	Reported
NC1CCN(c2cc(NCc3nc4cc(Cl)c(Cl)cc4[nH]3)c3ncc(-c4cnn(C(F)F)c4)n3n2)CC1	CCNK	100%
CN1CCN(c2cc(NCc3nc4c(F)c(F)ccc4[nH]3)c3ncc(-c4csc(C#N)c4)n3n2)CC1	CCNK	50%

We next turn to a different compound, shown below.
Exercise: What does the data say about its Dmax (%)? Entry: `NC1CCN(c2cc(NCc3nc4cccc(Cl)c4[nH]3)c3ncc(-c4ccsc4)n3n2)CC1`
Solution: 95%

====

Study System: UniProtKB Q9NYV4
Procedure Text: Inhibition of cyclin-dependent kinase 12 (% enzyme activity at 1 uM and IC50)
Assay type: biochemical
IC50 for assorted compounds
Express it in nM; write the number only.

// worked examples, IC50 included
Compound	Observation Type	Reported
Cc1ccnc2[nH]c(CNc3cc(N4CCN(C)CC4)nn4c(-c5cnn(C)c5)cnc34)nc12 [Cmpd 11]	IC50	1000
Fc1cccc2[nH]c(CNc3cc(N4CCOCC4)nn4c(-c5cnn(C6CC6)c5)cnc34)nc12 [Cmpd 36]	IC50	1220
NC1CCN(c2cc(NCc3nc4cc(Cl)c(Cl)cc4[nH]3)c3ncc(-c4cnn(C(F)F)c4)n3n2)CC1 [Cmpd 45]	IC50	567

We next turn to a different compound, shown below.
Exercise: What does the data say about its IC50? Entry: NC1CCN(c2cc(NCc3nc4cccc(Cl)c4[nH]3)c3ncc(-c4ccsc4)n3n2)C1 (stereo not shown) [Cmpd 69]
Solution: 57

====

System: CCNK
Procedure Text: CCNK degradation (DC50, Dmax)
Assay type: cell-based
Test Context: CCNK degradation
Doc: threshold 80% (exclusive). Items with Dmax (%) beneath it return t; others return f.

Examples with answers:
Compound	Classification
Clc1cc2nc(CNc3cc(N4CCOCC4)nn4c(-c5ccsc5)cnc34)[nH]c2cc1Cl [Cmpd 64]	f
CC1(C)CN(c2cc(NCc3nc4cc(Cl)c(Cl)cc4[nH]3)c3ncc(-c4cnn(C(F)F)c4)n3n2)CCO1 [Cmpd 48]	f
CC1(C)CN(c2cc(NCc3nc4cc(Cl)c(Cl)cc4[nH]3)c3ncc(-c4cnn(C(F)F)c4)n3n2)CCN1 [Cmpd 47]	f
CN1CCN(c2cc(NCc3nc4cc(Cl)c(Cl)cc4[nH]3)c3ncc(-c4ccsc4)n3n2)CC1 [Cmpd 63]	f
Cc1cc(-c2cnc3c(NCc4nc5cccc(Cl)c5[nH]4)cc(N4CCOCC4)nn23)cs1 [Cmpd 85]	f
CN1CCC(Nc2cc(NCc3nc4cccc(Cl)c4[nH]3)c3ncc(-c4ccsc4)n3n2)CC1 [Cmpd 71]	f
CN1CCN(c2cc(NCc3nc4cc(Cl)c(Cl)cc4[nH]3)c3ncc(-c4cnn(C(F)F)c4)n3n2)CC1 [Cmpd 41]	f
CN1CCN(c2cc(NCc3nc4cccc(Cl)c4[nH]3)c3ncc(-c4ccsc4)n3n2)CC1 [Cmpd 66]	f

Exercise: Say whether its Dmax (%) is strictly beneath 80%. Entry: Cc1cc(-c2cnc3c(NCc4nc5c(F)c(F)ccc5[nH]4)cc(N4CCOCC4)nn23)cs1 [Cmpd 97]
Solution: t

Exercise: Please give the result for NC1CCN(c2cc(NCc3nc4cccc(Cl)c4[nH]3)c3ncc(-c4ccsc4)n3n2)C1 (centres unmarked) [Cmpd 69] too.
Solution: f

Exercise: Please give the result for Cc1ccnc2[nH]c(CNc3cc(N4CCOCC4)nn4c(-c5cnn(C)c5)cnc34)nc12 [Cmpd 12] too.
Solution: t

Exercise: Please give the result for Clc1cccc2nc(CNc3cc(NC4CCNCC4)nn4c(-c5ccsc5)cnc34)[nH]c12 [Cmpd 72] too.
Solution: f

Exercise: Please give the result for Cn1cc(-c2cnc3c(NCc4nc5c(F)c(F)ccc5[nH]4)cc(N4CCOCC4)nn23)cn1 [Cmpd 6] too.
Solution: t

====

Test system: CCNK
Procedure Text: CCNK degradation (DC50, Dmax)
Type: cell-based
Test Context: CCNK degradation
Dmax (%) for assorted compounds
Express it in %; write the number only.

// worked examples, Dmax (%) included
Compound	Study System	Dmax (%)
Fc1cccc2[nH]c(CNc3cc(N4CCOCC4)nn4c(-c5cnn(C(F)F)c5)cnc34)nc12 [Cmpd 52]	CCNK	80
CN1CCN(c2cc(NCc3nc4cccc(Cl)c4[nH]3)c3ncc(-c4csc(C#N)c4)n3n2)CC1 [Cmpd 81]	CCNK	80
Clc1cccc2nc(CNc3cc(N4CCOCC4)nn4c(-c5cnn(C6CC6)c5)cnc34)[nH]c12 [Cmpd 33]	CCNK	65
Fc1cccc2[nH]c(CNc3cc(N4CCOCC4)nn4c(-c5cnn(C6CC6)c5)cnc34)nc12 [Cmpd 36]	CCNK	65
Fc1ccc2[nH]c(CNc3cc(N4CCOCC4)nn4c(-c5cnn(C6CC6)c5)cnc34)nc2c1F [Cmpd 39]	CCNK	80
Clc1cc2nc(CNc3cc(N4CCOCC4)nn4c(-c5cn[nH]c5)cnc34)[nH]c2cc1Cl [Cmpd 61]	CCNK	100

We next turn to a different compound, shown below.
Exercise: Request - read-out Dmax (%) | tested on CCNK | compound Cc1ccnc2[nH]c(CNc3cc(N4CCOCC4)nn4c(-c5cnn(C(F)F)c5)cnc34)nc12 [Cmpd 58]
Solution: 100
